Where do the numbers come from? From ChEMBL document CHEMBL3286132.

Test system: Mus musculus
Assay: Analgesic activity in albino mouse assessed as inhibition of acetic acid-induced writhing at 60 mg/kg, po administered 1 hr prior challenge relative to control
Format: functional
endpoint_name: inhibition in vivo at 60 mg/kg (%)
Numbers only, in %.

Look over these answered cases.
{"columns": ["compound", "inhibition in vivo at 60 mg/kg / %"],
 "data": [
  ["CC1C(=O)CC(c2ccc(Cl)cc2)N(C(=O)CCl)C1c1ccc(N(C)C)cc1 (stereo not given)", 17.8],
  ["CC1C(=O)CC(c2ccc(Cl)cc2)N(C(=O)CCl)C1c1ccc(O)cc1 (stereo not given)", 39.7],
  ["CC1C(=O)CC(c2ccc(F)cc2)N(C(=O)CCl)C1c1ccc(Cl)cc1 (stereo not given)", 57.6],
  ["COc1ccc(C2C(C)C(=O)CC(c3ccc(Cl)cc3)N2C(=O)CN2CCN(C)CC2)cc1 (stereo not given)", 53]
]}

Shift focus to the following entry.
get_value(item= CC1C(=O)CC(c2ccc(F)cc2)N(C(=O)CN2CCN(C)CC2)C1c1ccc(Cl)cc1 (stereo not given) , readout=inhibition in vivo at 60 mg/kg) returns 65.5
